The measured values listed here are drawn from ChEMBL document CHEMBL1150850.

Assay: Growth inhibition of african green monkey Vero cells assessed as [3H]thymidine incorporation at 100 uM after 3 days by scintillation counting
Assay type: cell-based
Details: chlorocebus sabaeus, read-out: GI
measured.quantity: inhibition at 72 h, 100 µM (%)
Give the number; % is assumed, so skip it.

inhibition at 72 h, 100 µM for Cc1cc(O)c2c(c1)C(=O)c1cc(O)cc(O)c1C2=O is 69.1

###

Assay: Growth inhibition of african green monkey Vero cells assessed as [3H]thymidine incorporation at 6.25 uM after 3 days by scintillation counting
Type: cell-based
Details: chlorocebus sabaeus, read-out: GI
measured.quantity: inhibition at 72 h, 6.25 µM (%)
Please give a number only; it is taken to be in %.

- sample.smiles: "Cc1cc(O)c2c(c1)C(=O)c1cc(O)cc(O)c1C2=O"
  reading.unit: "%"
  endpoint.value: 3.3

Next:
Form field inhibition at 72 h, 6.25 µM, entry Cc1cc(O)c2c(c1)C(=O)c1c(c(O)cc(O)c1-c1c(O)cc(O)c3c1C(=O)c1cc(C)cc(O)c1C3=O)C2=O : 23.1

###

Assay: Growth inhibition of african green monkey Vero cells assessed as [3H]thymidine incorporation at 25 uM after 3 days by scintillation counting
Assay type: cell-based
Details: chlorocebus sabaeus, read-out: GI
measured.quantity: inhibition at 72 h, 25 µM (%)
Give a bare numeral; the unit % is implied.

- molecule: "Cc1cc(O)c2c(c1)C(=O)c1cc(O)cc(O)c1C2=O [EMODIN]"
  endpoint.value: 26.7

Now consider a different molecule.
Query Cc1cc(O)c2c(c1)C(=O)c1c(c(O)cc(O)c1-c1c(O)cc(O)c3c1C(=O)c1cc(C)cc(O)c1C3=O)C2=O [SKYRIN] yields inhibition at 72 h, 25 µM of 70.5
